Values were extracted from paper PMC9827987.

System: KB cells
Test: Cytotoxicity, sulforhodamine B staining, KB
Format: cell-based
Settings: Homo sapiens, read-out: IC50 KB
IC50 reference
Write the number in µM without appending the unit.

# count of solved cases: 2
smiles_str	unit_tag	IC50
Nc1nc(N)c(CNCCc2ccc(Cl)cc2Cl)c(C2CC2)n1	µM	66
COc1cccc(CCNCc2c(N)nc(N)nc2C2CC2)c1	µM	74

With those in mind, consider the next compound.
Exercise: Tell me measured IC50 for Nc1nc(N)c(CNCCc2cccc(Cl)c2)c(C2CCCCC2)n1 please.
Solution: 23

----------
Target: HsDHFR (Homo sapiens, UniProt P00374)
Sequence (P00374 1-187): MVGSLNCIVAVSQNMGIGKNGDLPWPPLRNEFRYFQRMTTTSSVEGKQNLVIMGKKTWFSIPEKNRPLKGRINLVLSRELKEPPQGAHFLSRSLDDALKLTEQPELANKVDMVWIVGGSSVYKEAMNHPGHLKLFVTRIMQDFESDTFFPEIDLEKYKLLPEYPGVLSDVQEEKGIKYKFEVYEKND
endpoint_name: pKi
Recall that pKi is obtained by taking minus log10 of the concentration measured in molar.

smiles_str	pKi
COc1ccc(CCNCc2c(N)nc(N)nc2C2CC2)cc1	6.19

Now consider a different compound.
Exercise: Please report the measured pKi for Nc1nc(N)c(CNCCc2cccc(Cl)c2)c(C2CC2)n1
Solution: 6.46

----------
Target: HsDHFR (Homo sapiens)
Sequence (P00374 1-187): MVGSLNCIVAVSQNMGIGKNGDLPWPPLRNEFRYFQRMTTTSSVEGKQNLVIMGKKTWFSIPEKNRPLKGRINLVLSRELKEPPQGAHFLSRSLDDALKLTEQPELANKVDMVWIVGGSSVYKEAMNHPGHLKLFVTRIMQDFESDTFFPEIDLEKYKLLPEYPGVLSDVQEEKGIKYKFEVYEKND
Reported pKi values follow for various compounds
Please treat pKi as minus the base-10 logarithm of the molar concentration.

The cases that follow already have their pKi on record.
compound	pKi
Nc1nc(N)c(CNCCc2ccc(Cl)cc2)c(C2CC2)n1 [7 l]	6.85
COc1ccccc1CCNCc1c(N)nc(N)nc1C1CC1 [7 d]	5.80
Nc1nc(N)c(CNCCc2cccc(F)c2)c(C2CC2)n1 [7 h]	6.34
Nc1nc(N)c(CNCCc2ccccc2F)c(C2CC2)n1 [7 g]	6.69

Exercise: # return pKi for COc1cccc(CCNCc2c(N)nc(N)nc2C2CC2)c1 [7 e] , test system: HsDHFR (Homo sapiens)
Solution: 5.98

----------
Tested on: KB cells
Test: Cytotoxicity, sulforhodamine B staining, KB
Format: cell-based
Conditions: Homo sapiens, read-out: IC50 KB
Lab note: compare IC50 with 80 µM, writing Fulfilled if less and Not fulfilled if equal or more.

compound	measured_target	category_label
Nc1nc(N)c(CNCCc2ccccc2F)c(C2CC2)n1	KB cells	Not fulfilled
Nc1nc(N)c(CNCCc2ccccc2Cl)c(C2CC2)n1	KB cells	Not fulfilled
Nc1nc(N)c(CNCCc2ccccc2F)c(C2CCCCC2)n1	KB cells	Fulfilled
Nc1nc(N)c(CNCCc2ccc(F)cc2)c(C2CC2)n1	KB cells	Not fulfilled
CCc1nc(N)nc(N)c1-c1ccc(Cl)cc1 [PYR, pyrimethamine, reference compound]	KB cells	Fulfilled
Nc1nc(N)c(CNCCc2ccc(Cl)c(Cl)c2)c(C2CCCCC2)n1	KB cells	Fulfilled
COc1ccc(CCNCc2c(N)nc(N)nc2C2CC2)cc1	KB cells	Fulfilled
COc1ccc(CCNCc2c(N)nc(N)nc2-c2ccccc2)cc1	KB cells	Not fulfilled

Could you now look at the following compound, please?
Exercise: Input Nc1nc(N)c(CNCCc2cccc(F)c2)c(C2CC2)n1 ; condition: IC50 strictly below 80 µM. Does it hold?
Solution: Not fulfilled

----------
HsDHFR (Homo sapiens) measurements of Ki, listed per entry.

Would you please look over these solved cases?
smiles_str	result
Nc1nc(N)c(CNCCc2ccc(Cl)cc2Cl)c(C2CCCCC2)n1	> 250000 nM
COc1ccccc1CCNCc1c(N)nc(N)nc1-c1ccccc1	> 500000 nM
Nc1nc(N)c(CNCCc2ccc(Cl)cc2Cl)c(C2CC2)n1	131 nM
Nc1nc(N)c(CNCCc2ccc(Cl)c(Cl)c2)c(C2CCCCC2)n1	> 250000 nM
COc1ccc(CCNCc2c(N)nc(N)nc2-c2ccccc2)cc1	> 500000 nM
Nc1nc(N)c(CNCCc2ccc(Cl)c(Cl)c2)c(C2CC2)n1	202 nM
COc1cccc(CCNCc2c(N)nc(N)nc2-c2ccccc2)c1	> 500000 nM
Nc1nc(N)c(CNCCc2ccc(F)cc2)c(C2CCCCC2)n1	> 250000 nM

Exercise: Identify measured Ki corresponding to Nc1nc(N)c(CNCCc2ccccc2Cl)c(C2CC2)n1
Solution: 304 nM

Exercise: Please look at this compound and report its Ki: Nc1nc(N)c(CNCCc2ccc(F)cc2)c(C2CC2)n1
Solution: 212 nM

Exercise: Look up and state reported Ki for COc1cccc(CCNCc2c(N)nc(N)nc2C2CCCCC2)c1
Solution: > 500000 nM

----------
Target: PfDHFR-QM (Plasmodium falciparum, UniProt P13922, I164L/N51I)
Experiment: DHFR enzyme inhibition assay, quadruple mutant
Overview of recorded pKi for various compounds
Scale: pKi equals -log10([C]), with [C] in mol/L.

Examples from the recorded data:
smiles_str	measured_number
Nc1nc(N)c(CNCCc2ccc(Cl)c(Cl)c2)c(C2CCCCC2)n1	7.55
Nc1nc(N)c(CNCCc2ccc(F)cc2)c(C2CCCCC2)n1	6.87
Nc1nc(N)c(CNCCc2ccccc2Cl)c(C2CCCCC2)n1	7.42
Nc1nc(N)c(CNCCc2cccc(Cl)c2)c(C2CCCCC2)n1	7.44
Nc1nc(N)c(CNCCc2cccc(Cl)c2)c(C2CC2)n1	7.70
COc1ccc(CCNCc2c(N)nc(N)nc2C2CC2)cc1	7.54
Nc1nc(N)c(CNCCc2ccc(Cl)c(Cl)c2)c(C2CC2)n1	7.89
COc1ccc(CCNCc2c(N)nc(N)nc2C2CCCCC2)cc1	7.26
COc1ccccc1CCNCc1c(N)nc(N)nc1C1CCCCC1	6.90
COc1ccccc1CCNCc1c(N)nc(N)nc1-c1ccccc1	6.68

Exercise: Fill in pKi for record Nc1nc(N)c(CNCCc2cccc(F)c2)c(C2CC2)n1
Solution: 7.59

----------
Test system: KB cells
Experiment: Cytotoxicity, sulforhodamine B staining, KB
Assay type: cell-based
Details: Homo sapiens, read-out: IC50 KB
Entries and their pIC50
As a rule, pIC50 stands for the negative log10 of the concentration, concentration in M.

molecule	pIC50
Nc1nc(N)c(CNCCc2ccccc2Cl)c(C2CCCCC2)n1 [7 u]	4.66
COc1ccc(CCNCc2c(N)nc(N)nc2C2CCCCC2)cc1 [7 q]	4.64
Nc1nc(N)c(CNCCc2cccc(F)c2)c(C2CCCCC2)n1 [7 s]	4.21
Nc1nc(N)c(CNCCc2ccc(Cl)cc2)c(C2CCCCC2)n1 [7 w]	4.64
COc1cccc(CCNCc2c(N)nc(N)nc2C2CCCCC2)c1 [7 p]	4.64

Let's switch to this molecule now.
Exercise: Please supply the value of reported pIC50 for the item Nc1nc(N)c(CNCCc2ccc(F)cc2)c(C2CCCCC2)n1 [7 t]
Solution: 4.25

----------
Molecular target: PfDHFR-QM (Plasmodium falciparum, UniProt P13922, I164L/N51I)
Assay: DHFR enzyme inhibition assay, quadruple mutant
endpoint_name: log10(Ki) (log10 of the value in nM)
# log10 transformed; quantity=Ki; unit=nM

Worked cases, log10(Ki) given:
compound	log10(Ki)
Nc1nc(N)c(CNCCc2ccccc2F)c(C2CC2)n1	1.49
COc1cccc(CCNCc2c(N)nc(N)nc2-c2ccccc2)c1	1.87
Nc1nc(N)c(CNCCc2ccc(F)cc2)c(C2CC2)n1	1.54
COc1ccc(CCNCc2c(N)nc(N)nc2-c2ccccc2)cc1	1.84
Nc1nc(N)c(CNCCc2ccccc2F)c(C2CCCCC2)n1	1.92

Exercise: Given CC1(C)N=C(N)N=C(N)N1c1ccc(Cl)cc1 [CYC, cycloguanil, reference compound] , respond with its log10(Ki).
Solution: 2.62

Exercise: Fill in reported log10(Ki) for this entry: Nc1nc(N)c(CNCCc2ccc(Cl)cc2)c(C2CCCCC2)n1
Solution: 1.78

Exercise: Assign log10(Ki) to the following record: COc1ccccc1CCNCc1c(N)nc(N)nc1C1CC1
Solution: 1.49

Exercise: Tell me measured log10(Ki) for Nc1nc(N)c(CNCCc2ccc(Cl)cc2)c(C2CC2)n1 please.
Solution: 1.43

Exercise: Complete the entry with log10(Ki) for Nc1nc(N)c(CNCCc2cccc(F)c2)c(C2CCCCC2)n1
Solution: 1.87

----------
log10(Ki) reference
Target: PfDHFR-WT (Plasmodium falciparum, UniProt P13922, N108S/R59C)
Test: DHFR enzyme inhibition assay, wild type
Values below are the log10 of the recorded Ki, with nM as the unit.

Example cases with answers are listed next.
smiles_str	log10(Ki)
Nc1nc(N)c(CNCCc2ccc(F)cc2)c(C2CC2)n1	0.76
Nc1nc(N)c(CNCCc2cccc(Cl)c2)c(C2CCCCC2)n1	1.40
COc1ccccc1CCNCc1c(N)nc(N)nc1-c1ccccc1	2.39

Okay, now this compound:
Exercise: Return reported log10(Ki). Input compound: Nc1nc(N)c(CNCCc2cccc(F)c2)c(C2CC2)n1
Solution: 1.00
